Tested on: EKVX
ASSAY_PROCEDURE: NCI tumour cell line growth inhibition, 48 h
The source made the active and inactive calls. Cut-off read from the data, not from the text of the source: active = GI50 up to about 1.1 µM and inactive = higher.
Listing of entries alongside the reported GI50.

The following molecules have reported results that may help.
-- ask What does the record list as GI50 for Cc1c(C2=NN=C(/N=N/c3c(O)cccc3O)/C2=C/c2ccccc2)c(=O)n(-c2ccccc2)n1C ?
-- reply > 100 µM (inactive)

-- ask If you can, please state the reported GI50 value of NCCC(=O)N[C@H](Cc1cc(O)c(O)c(SCC(NC(=O)CC[C@H](N)C(=O)O)C(=O)NCC(=O)O)c1)C(=O)O (stereo not given in full) .
-- reply > 50 µM (inactive)

-- ask # input molecule: COc1ccc(CCNCc2cccc(OC)c2OC)cc1OC ; wanted: its GI50
-- reply > 100 µM (inactive)

-- ask Which GI50 value belongs to O=Cc1c2ccccc2n2ccc3c4ccccc4[nH]c3c12 ?
-- reply 3.57 µM (inactive)

-- ask What does the record list as GI50 for Cc1cc(S(=O)(=O)N/C(=C(\C#N)C(=O)c2ccccc2)[n+]2ccc(N(C)C)cc2)c([S-])cc1Cl ?
-- reply 32 µM (inactive)

-- ask Give its GI50 value. Item: O=C1c2cccc3c2C(=O)c2c(cccc21)OCCOCCOCCOCCO3
-- reply > 100 µM (inactive)

***
-- ask Fill in: GI50 of COc1ccc2c(CCNS(=O)(=O)c3ccccc3)c(C(C)=O)[nH]c2c1 is ___
-- reply > 100 µM (inactive)

-- ask Report GI50 for CN1CCc2c(sc3nc(Nc4ccccc4)n(N)c(=O)c23)C1 please.
-- reply > 100 µM (inactive)

-- ask Give its GI50 value. Item: CC1CC(C)(C)CC(OCCN2CCCCC2)(c2ccccc2)C1 (stereo not given)
-- reply 5.51 µM (inactive)

-- ask Name the recorded GI50 for COc1ccc(S(=O)(=O)c2ccccc2[N+](=O)[O-])cc1 .
-- reply > 100 µM (inactive)
